Every entry's value here was drawn from the RNAGym collection of RNA variant scans (doi:10.7554/elife.90254).

B1: OR4K15 (parent)
chain: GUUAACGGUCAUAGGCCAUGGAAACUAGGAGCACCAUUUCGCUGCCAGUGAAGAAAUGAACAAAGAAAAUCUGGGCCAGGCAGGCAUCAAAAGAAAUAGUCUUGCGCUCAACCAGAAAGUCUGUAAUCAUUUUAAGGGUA

Variants of: B1
assay_info: self-cleavage, relative activity (ratio to wild type); higher = more cleavage; in vitro, sequencing; the parent is a self-cleaving ribozyme
Everything with self-cleavage lower than 1 is rule not met; everything else, including exactly 1, is rule met.

-- ask Is reported self-cleavage greater than or equal to 1 here: U2C A18G
-- reply rule not met

-- ask Does the variant U108C A118G have recorded self-cleavage that is 1 or more?
-- reply rule not met

-- ask Confirm if self-cleavage reported for the variant `G119U` is 1 or above.
-- reply rule met

-- ask For this variant, is measured self-cleavage 1 or higher? A23G A90G
-- reply rule not met

-- ask Threshold query (self-cleavage >= 1) on A5G U43C
-- reply rule not met

-- ask API: above_or_equal(metric=self-cleavage, cutoff=1) for item A64U A114U
-- reply rule not met

-- ask Reported self-cleavage reaches at least 1 for U108A U120A ?
-- reply rule not met

-- ask self-cleavage >= 1 for U97A U132A ?
-- reply rule met

-- ask Hi team, for A59G C71A , is the recorded self-cleavage at or above 1?
-- reply rule not met

-- ask Reported self-cleavage at or above 1? U26A A92G
-- reply rule not met

-- ask Decide: self-cleavage of U38A A98G >= 1?
-- reply rule not met

-- ask Does self-cleavage meet or surpass 1 for U12C U87A ?
-- reply rule not met

-- ask Quick check: does A4U A63G have self-cleavage greater than or equal to 1?
-- reply rule not met

-- ask Is self-cleavage at least 1? Consider A13G C40U
-- reply rule met

-- ask Hi team, for C46A U97A , is the recorded self-cleavage at or above 1?
-- reply rule met

-- ask Threshold query (self-cleavage >= 1) on A82G A89G
-- reply rule not met

-- ask Given U57C A117C , state whether its self-cleavage is at least 1.
-- reply rule not met

-- ask Decide: self-cleavage of U124C U130G >= 1?
-- reply rule not met

-- ask Evaluate `A98G` : self-cleavage at minimum 1?
-- reply rule not met

-- ask Given the entry A67G U139C , answer whether its self-cleavage meets or surpasses 1.
-- reply rule met

-- ask Item A66G U100C with self-cleavage of 1 or above?
-- reply rule met

-- ask Please check the record A62U A118U and state if its self-cleavage is at or above 1.
-- reply rule not met

-- ask Is self-cleavage at least 1? Consider G48A G73A
-- reply rule not met

-- ask Can A92G A95G be said to have self-cleavage at or above 1?
-- reply rule met

-- ask Exam item: decide whether the reported self-cleavage for A59C A68G is at least 1.
-- reply rule met

-- ask Evaluate A91U A129G : self-cleavage at minimum 1?
-- reply rule met

-- ask Is self-cleavage for G123A A135G at or above 1?
-- reply rule met

-- ask Is self-cleavage at least 1? Consider U19C A117C
-- reply rule not met

-- ask Quick check: does A5U A89G have self-cleavage greater than or equal to 1?
-- reply rule met

-- ask Record U127C U132A ; criterion: self-cleavage no lower than 1. Met?
-- reply rule not met

-- ask Quick check, self-cleavage >= 1? U43G A51G
-- reply rule met

-- ask Form field: self-cleavage at least 1? Entry: U9C G80A
-- reply rule not met

-- ask Confirm if self-cleavage reported for the variant A59U A134U is 1 or above.
-- reply rule met

-- ask Dear colleague, could you confirm whether U39A A55G has self-cleavage at or above 1?
-- reply rule met

-- ask # bool: self-cleavage of C85U U122C >= 1
-- reply rule not met

-- ask Hello, I need to know if A94U U97G has measured self-cleavage not below 1. Thanks!
-- reply rule met
